Readings of inhibition for the listed compounds
# target_desc: SRSF protein kinase 3 (Homo sapiens) (UniProt Q9UPE1);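 also: mean of replicate inhibition values against MSSK1 kinase, profiled within the GSK PKIS kinase inhibitor set screen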
# Sequence (Q9UPE1 whole entry): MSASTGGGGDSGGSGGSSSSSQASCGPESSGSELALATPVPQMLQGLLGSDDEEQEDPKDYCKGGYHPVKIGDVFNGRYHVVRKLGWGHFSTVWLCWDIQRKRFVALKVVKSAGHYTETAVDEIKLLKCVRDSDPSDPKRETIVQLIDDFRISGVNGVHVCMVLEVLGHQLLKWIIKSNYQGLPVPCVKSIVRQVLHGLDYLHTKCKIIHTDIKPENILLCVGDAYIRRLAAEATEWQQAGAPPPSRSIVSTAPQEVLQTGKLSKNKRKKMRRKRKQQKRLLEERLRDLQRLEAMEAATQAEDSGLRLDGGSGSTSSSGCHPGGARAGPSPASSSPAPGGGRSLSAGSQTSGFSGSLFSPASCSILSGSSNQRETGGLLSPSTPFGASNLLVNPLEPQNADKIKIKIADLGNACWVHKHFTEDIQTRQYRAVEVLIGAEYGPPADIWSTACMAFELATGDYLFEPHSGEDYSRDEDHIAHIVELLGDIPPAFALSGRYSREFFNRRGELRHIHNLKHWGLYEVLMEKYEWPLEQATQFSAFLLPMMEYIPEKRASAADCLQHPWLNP
# measurement_setup: at 0.1 µM
outcome_measure: inhibition (%)

- O=C1Nc2ccc(-c3cccnc3)cc2C1=Cc1cc(Br)c(O)c(Br)c1: 1.44
- Cc1cc(-c2ccccn2)cc(C)c1/C=C/c1cncc(-c2nn[nH]n2)c1: -0.25
- NS(=O)(=O)c1ccc(NC=C2C(=O)Nc3ccc4ncsc4c32)cc1: -0.67
- c1ccc(Nc2ncc(-c3ccccc3)o2)cc1: -1.27
- COC(=O)c1ccc2c(c1)C(=Cc1cc(Br)c(O)c(Br)c1)C(=O)N2: 3.56
- Cc1ccc2c(-c3ccnc(Nc4cccc(C(F)(F)F)c4)n3)c(-c3ccccc3)nn2n1: 0.34
- Nc1nccc(-c2c(-c3ccc(F)cc3)nn3cc(C(F)(F)F)ccc23)n1: -1.48
- CC(C)c1ccc2c(c1)NC(=O)/C2=N/Nc1ccc(S(N)(=O)=O)cc1: -0.91
- COc1cccc(-n2ncc3c(N/N=C/c4ccc(S(C)(=O)=O)cc4)ncnc32)c1: -0.64
- O=S(=O)(CCOCc1ccc(-c2ccc3ncnc(Nc4ccc(OCc5cccc(F)c5)c(Cl)c4)c3c2)o1)c1ccccc1: -0.89
- CS(=O)(=O)CCNCc1nc(-c2ccc3ncnc(Nc4ccc(OCc5cccc(C(F)(F)F)c5)cc4)c3c2)cs1: 0.88
- COC(=O)c1cncc(/C=C/c2c(C)cc(O)cc2C)c1: 1.31
- CC(C)c1ccc(Nc2nccc(-c3cnn4ncccc34)n2)cc1: -1.04
- CN(C)C(=O)O[C@@H]1CN[C@@H](C#Cc2cc3ncnc(Nc4ccc(OCc5cccc(F)c5)c(Cl)c4)c3s2)C1: -1.41
- Cc1ccc(O)cc1Nc1ccnc2ccc(S(C)(=O)=O)cc12: -1.95
- CCn1c(-c2nonc2N)nc2ccc(F)cc21: -2.41
- Cc1ccc(C(=O)NC2CC2)cc1-c1ccc2[nH]ncc2c1: 2.03
- [O-][S+]1CCN(Cc2ccc(-c3ccc4ncnc(Nc5ccc(OCc6ccccc6)c(Cl)c5)c4c3)o2)CC1: -1.59
- COc1cc2ncn(-c3cc(OCc4ccccc4S(C)(=O)=O)c(C#N)s3)c2cc1OC: 0.72
- Cc1ccc(Nc2ccnc(Nc3cccc(C(N)=O)c3)n2)cc1O: 0.91
- CN(C)CCCn1c(-c2nonc2N)nc2cnccc21: -1.86
